Species on record: Rattus norvegicus
Assay: Acute toxicity in albino rat
Format: organism-based
Details: in vivo
measurement.label: LD50 (mg/kg)
The reply should contain only the number, in mg/kg.

Query: May I ask what LD50 has been recorded for `Cc1cc(=O)[nH]c(/C(=N/Nc2cccc(Cl)c2)C(=O)c2ccc(Cl)cc2)n1` ?
Reply: 2.13345

Query: May I ask what LD50 has been recorded for `Cc1cc(=O)[nH]c(/C(=N/Nc2ccccc2)C(=O)c2ccc(Cl)cc2)n1` ?
Reply: 2.11122

Query: May I ask what LD50 has been recorded for `CCOC(=O)c1ccc(N/N=C(\C(=O)c2ccc(Cl)cc2)c2nc(C)cc(=O)[nH]2)cc1` ?
Reply: 2.34133

Query: May I ask what LD50 has been recorded for `Cc1cc(=O)[nH]c(/C(=N/Nc2ccc(Cl)cc2)C(=O)c2ccc(Cl)cc2)n1` ?
Reply: 2.34537

Query: May I ask what LD50 has been recorded for `Cc1ccc(N/N=C(\C(=O)c2ccc(Cl)cc2)c2nc(C)cc(=O)[nH]2)cc1` ?
Reply: 2.663

###

I'd be grateful if you could share measured LD50 for these entries.
Organism: Rattus norvegicus
Test: Acute toxicity in albino rat
Type: organism-based
Details: in vivo
The reply should contain only the number, in mg/kg.

Query: May I ask what LD50 has been recorded for `Cc1cc(=O)[nH]c(/C(=N/Nc2ccc([N+](=O)[O-])cc2)C(=O)c2ccc(Cl)cc2)n1` ?
Reply: 2.34523

Query: May I ask what LD50 has been recorded for `Cc1cccc(N/N=C(\C(=O)c2ccc(Cl)cc2)c2nc(C)cc(=O)[nH]2)c1` ?
Reply: 2.555

Query: May I ask what LD50 has been recorded for `Cc1cc(=O)[nH]c(/C(=N/Nc2cccc([N+](=O)[O-])c2)C(=O)c2ccc(Cl)cc2)n1` ?
Reply: 2.55348

Query: May I ask what LD50 has been recorded for `CC(=O)c1ccc(N/N=C(\C(=O)c2ccc(Cl)cc2)c2nc(C)cc(=O)[nH]2)cc1` ?
Reply: 1.87034

###

System: Syncephalastrum racemosum
Experiment: Antimicrobial activity against Syncephalastrum racemosum at 1 to 5 ug/ml by agar well diffusion method
Format: functional
measurement.label: diameter of the inhibition zone (DIZ) (cm)
The reply should contain only the number, in cm.

Query: May I ask what diameter of the inhibition zone (DIZ) has been recorded for `CN(C/C=C/C#CC(C)(C)C)Cc1cccc2ccccc12` ?
Reply: 1.1

Query: May I ask what diameter of the inhibition zone (DIZ) has been recorded for `Cc1cc(=O)[nH]c(/C(=N/Nc2ccc(Cl)cc2)C(=O)c2ccc(Cl)cc2)n1` ?
Reply: 0

Query: May I ask what diameter of the inhibition zone (DIZ) has been recorded for `CCOC(=O)c1ccc(N/N=C(\C(=O)c2ccc(Cl)cc2)c2nc(C)cc(=O)[nH]2)cc1` ?
Reply: 0

Query: May I ask what diameter of the inhibition zone (DIZ) has been recorded for `Cc1cccc(N/N=C(\C(=O)c2ccc(Cl)cc2)c2nc(C)cc(=O)[nH]2)c1` ?
Reply: 0

Query: May I ask what diameter of the inhibition zone (DIZ) has been recorded for `COc1ccc(N/N=C(\C(=O)c2ccc(Cl)cc2)c2nc(C)cc(=O)[nH]2)cc1` ?
Reply: 0

Query: May I ask what diameter of the inhibition zone (DIZ) has been recorded for `Cc1cc(=O)[nH]c(/C(=N/Nc2ccccc2)C(=O)c2ccc(Cl)cc2)n1` ?
Reply: 0

###

Species on record: Rattus norvegicus
Assay: Acute toxicity in albino rat
Type: organism-based
Details: in vivo
measurement.label: LD90 (mg/kg)
The reply should contain only the number, in mg/kg.

Query: May I ask what LD90 has been recorded for `Cc1cc(=O)[nH]c(/C(=N/Nc2ccc([N+](=O)[O-])cc2)C(=O)c2ccc(Cl)cc2)n1` ?
Reply: 3.29098

Query: May I ask what LD90 has been recorded for `CCOC(=O)c1ccc(N/N=C(\C(=O)c2ccc(Cl)cc2)c2nc(C)cc(=O)[nH]2)cc1` ?
Reply: 3.21717

Query: May I ask what LD90 has been recorded for `Cc1cc(=O)[nH]c(/C(=N/Nc2ccccc2)C(=O)c2ccc(Cl)cc2)n1` ?
Reply: 3.24592

Query: May I ask what LD90 has been recorded for `Cc1cccc(N/N=C(\C(=O)c2ccc(Cl)cc2)c2nc(C)cc(=O)[nH]2)c1` ?
Reply: 3.98654

Query: May I ask what LD90 has been recorded for `CC(=O)c1ccc(N/N=C(\C(=O)c2ccc(Cl)cc2)c2nc(C)cc(=O)[nH]2)cc1` ?
Reply: 2.25087

Query: May I ask what LD90 has been recorded for `Cc1ccc(N/N=C(\C(=O)c2ccc(Cl)cc2)c2nc(C)cc(=O)[nH]2)cc1` ?
Reply: 4.35687

Query: May I ask what LD90 has been recorded for `Cc1cc(=O)[nH]c(/C(=N/Nc2cccc(Cl)c2)C(=O)c2ccc(Cl)cc2)n1` ?
Reply: 2.98032

Query: May I ask what LD90 has been recorded for `Cc1cc(=O)[nH]c(/C(=N/Nc2ccc(Cl)cc2)C(=O)c2ccc(Cl)cc2)n1` ?
Reply: 3.12376

Query: May I ask what LD90 has been recorded for `Cc1cc(=O)[nH]c(/C(=N/Nc2cccc([N+](=O)[O-])c2)C(=O)c2ccc(Cl)cc2)n1` ?
Reply: 3.30012

###

Tested on: Rattus norvegicus
Experiment: Effect on circulating testosterone and dihydrotestosterone level in sc dosed Sprague-Dawley rat by radioimmunoassay
Format: functional
I'd be grateful if you could share measured ED50 for these entries.
The reply should contain only the number, in µg/kg.

Query: May I ask what ED50 has been recorded for `Cc1cc(=O)[nH]c(/C(=N/Nc2ccc([N+](=O)[O-])cc2)C(=O)c2ccc(Cl)cc2)n1` ?
Reply: 0.478

Query: May I ask what ED50 has been recorded for `Cc1cc(=O)[nH]c(/C(=N/Nc2ccccc2)C(=O)c2ccc(Cl)cc2)n1` ?
Reply: 0.211

Query: May I ask what ED50 has been recorded for `Cc1cc(=O)[nH]c(/C(=N/Nc2cccc(Cl)c2)C(=O)c2ccc(Cl)cc2)n1` ?
Reply: 0.591

Query: May I ask what ED50 has been recorded for `CC(=O)c1ccc(N/N=C(\C(=O)c2ccc(Cl)cc2)c2nc(C)cc(=O)[nH]2)cc1` ?
Reply: 0.698

Query: May I ask what ED50 has been recorded for `CCOC(=O)c1ccc(N/N=C(\C(=O)c2ccc(Cl)cc2)c2nc(C)cc(=O)[nH]2)cc1` ?
Reply: 0.198

Query: May I ask what ED50 has been recorded for `Cc1cccc(N/N=C(\C(=O)c2ccc(Cl)cc2)c2nc(C)cc(=O)[nH]2)c1` ?
Reply: 0.174

Query: May I ask what ED50 has been recorded for `Cc1cc(=O)[nH]c(/C(=N/Nc2ccc(Cl)cc2)C(=O)c2ccc(Cl)cc2)n1` ?
Reply: 0.611

Query: May I ask what ED50 has been recorded for `Cc1cc(=O)[nH]c(/C(=N/Nc2cccc([N+](=O)[O-])c2)C(=O)c2ccc(Cl)cc2)n1` ?
Reply: 0.188

Query: May I ask what ED50 has been recorded for `Cc1ccc(N/N=C(\C(=O)c2ccc(Cl)cc2)c2nc(C)cc(=O)[nH]2)cc1` ?
Reply: 0.173
